Data provenance: ChEMBL document CHEMBL5223118

- TESTED_TARGET: cAMP-dependent protein kinase (PKA) (Homo sapiens, UniProt P22694+P17612+P22612)
- PROTOCOL_DETAILS: Inhibition of PKA (unknown origin)
- Type: protein assay
ENDPOINT: Ki (µM)

As a guide, the following entries are already answered.
compound=COc1cc(NCCNc2ccnc(N)c2C#N)cc(OC)c1 reported=588
compound=N#Cc1c(N)ccc(/C=C2/CCCNC2)c1Cl reported=85
compound=N[C@H]1CCN(Cc2cccc(-c3ccc4c(O)nccc4c3)c2)C1 reported=0.74
compound=N#Cc1c(N2CCCC2)n[nH]c1N reported=5000
compound=N#Cc1c(N)ccnc1C=C1CCNCC1 reported=6379
compound=Cc1cc(C(=O)Nc2ccncc2)c(C)o1 reported=20000

A. CN(C)Cc1ccc(F)c(-c2ccc3c(C#N)c(N)[nH]c3c2)c1
B. N#Cc1cc(-c2cccc(C3CNCCO3)c2)ccc1N (stereo unspecified)
C. CC1(CS(=O)(=O)N2CCc3c(sc(N)c3C#N)C2)CC1(F)F (stereo unspecified)
Ask: Ordering: ascending Ki. In your reply, arrange the labels in the requested order.
Result: A, B, C

---

- TESTED_TARGET: cAMP-dependent protein kinase (PKA) (Homo sapiens, UniProt P22694+P17612+P22612)
- PROTOCOL_DETAILS: Inhibition of PKA (unknown origin)
- Assay type: protein assay
ENDPOINT: Ki (µM)

As a guide, the following entries are already answered.
compound="NCCC1CN(C(=O)c2ccc(C(N)=O)cc2)c2ccccc21 (configuration not stated)" endpoint=Ki reported=5000
compound="COC1(CNC(=O)N2CCN(c3ccncc3C)CC2)CCCS(=O)(=O)C1 (configuration not stated)" endpoint=Ki reported=354.3
compound=O=c1[nH]ccc2cc(-c3cccc(Cn4cccn4)c3)ccc12 endpoint=Ki reported=154.7
compound=CCn1cc(-c2csc3c(=O)[nH]ccc23)cn1 endpoint=Ki reported=1423
compound="NC1CCN(Cc2cccc(-c3ccc4c(O)nccc4c3)c2)C1 (racemic)" endpoint=Ki reported=0.744
compound="N#Cc1cc(-c2cccc(CC(N)CC3CC3)c2)ccc1N (configuration not stated)" endpoint=Ki reported=540
compound="COCC1CN=C(N2CCN(c3ccncc3Cl)CC2)N1.I (configuration not stated)" endpoint=Ki reported=139.3
compound=N#Cc1cc(-c2cccc(C3(CN)CCOCC3)c2)ccc1N endpoint=Ki reported=390.2

A. N#Cc1cc(-c2cccc(C3COCCN3)c2)ccc1N (configuration not stated)
B. COCC1CCC(NC(=O)c2ccc3c(c2)CCNC3=O)CC1 (configuration not stated)
C. NC1C=C(C(F)(F)F)C=NC1=O (configuration not stated)
D. N[C@@H]1CCN(Cc2cccc(-c3ccc4c(O)nccc4c3)c2)C1
Ask: Arrange these compounds by their Ki, starting with the largest number. In your reply, arrange the labels in the requested order.
Result: C, B, A, D
(C: 10000 µM, B: 6219 µM, A: 955 µM, D: 3 µM)
